Target: ligand binding domain of human FXR (Homo sapiens (Human), UniProt Q96RI1)
Sequence (Q96RI1 262-486): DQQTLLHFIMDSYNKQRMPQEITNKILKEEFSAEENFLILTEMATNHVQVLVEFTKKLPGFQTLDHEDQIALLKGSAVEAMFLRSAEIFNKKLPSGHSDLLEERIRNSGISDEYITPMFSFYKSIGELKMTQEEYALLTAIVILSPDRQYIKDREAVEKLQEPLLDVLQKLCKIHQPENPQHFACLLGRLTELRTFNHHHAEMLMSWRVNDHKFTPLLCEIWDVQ
Assay: FXR ligand binding assay (LanthaScreen TR-FRET, SRC2-2 peptide recruitment)
Conditions: -log EC50, concentration required to produce 50% activation
test readout: pEC50
Form field (numeric): enter value without unit.

| smiles code | measurement target | pEC50 |
| --- | --- | --- |
| CC(=O)NCCCCCCCCCCS(=O)(=O)NC(=O)c1ccc(N2C[C@@H]3C[C@H]2C[C@H]3OCc2c(-c3c(Cl)cccc3Cl)noc2C2CC2)c(F)c1 | ligand binding domain of human FXR (Homo sapiens (Human), UniProt Q96RI1) | 8.1 |
| O=P(O)(O)CCc1ccc(N2C[C@@H]3C[C@H]2C[C@H]3OCc2c(-c3c(Cl)cccc3Cl)noc2C2CC2)cc1 | ligand binding domain of human FXR (Homo sapiens (Human), UniProt Q96RI1) | 8.2 |
| O=C(O)c1cc(C(F)(F)F)c2nc(N3C[C@@H]4C[C@H]3C[C@H]4OCc3c(-c4c(Cl)cccc4Cl)noc3C3CC3)sc2c1 | ligand binding domain of human FXR (Homo sapiens (Human), UniProt Q96RI1) | 7.8 |
| O=C(CCc1ccc(N2C[C@@H]3C[C@H]2C[C@H]3OCc2c(-c3c(Cl)cccc3Cl)noc2C2CC2)c(F)c1)NS(=O)(=O)C1CCOCC1 | ligand binding domain of human FXR (Homo sapiens (Human), UniProt Q96RI1) | 8.6 |
| C[C@H]1[C@H]2C[C@H](C[C@@H]2OCc2c(-c3c(Cl)cccc3Cl)noc2C2CC2)N1c1ccc(C(=O)O)cn1 | ligand binding domain of human FXR (Homo sapiens (Human), UniProt Q96RI1) | 4.5 |
| C[C@@H]1[C@@H]2C[C@@H](C[C@H]2OCc2c(-c3c(Cl)cccc3Cl)noc2C2CC2)N1c1ccc(C(=O)O)nc1 | ligand binding domain of human FXR (Homo sapiens (Human), UniProt Q96RI1) | 6.4 |
| O=C(O)c1cc(OC(F)(F)F)c2nc(N3C[C@@H]4C[C@H]3C[C@H]4OCc3c(C4CCOCC4)noc3C3CC3)sc2c1 | ligand binding domain of human FXR (Homo sapiens (Human), UniProt Q96RI1) | 5.5 |
| O=C(NS(=O)(=O)C1CCOCC1)c1ccc(N2C(=O)[C@@H]3C[C@H]2C[C@H]3OCc2c(-c3c(Cl)cccc3Cl)noc2C2CC2)cc1F | ligand binding domain of human FXR (Homo sapiens (Human), UniProt Q96RI1) | 8.8 |
| O=CN(O)Cc1ccc(N2C[C@@H]3C[C@H]2C[C@H]3OCc2c(-c3c(Cl)cccc3Cl)noc2C2CC2)cc1 | ligand binding domain of human FXR (Homo sapiens (Human), UniProt Q96RI1) | 6.9 |
| CC(C)c1cccc(F)c1-c1noc(C2CC2)c1CO[C@@H]1C[C@@H]2C[C@H]1C(=O)N2c1ccc(C(=O)O)cc1 | ligand binding domain of human FXR (Homo sapiens (Human), UniProt Q96RI1) | 7.6 |

For this compound ( Cc1cc(C(=O)O)ccc1N1C(=O)[C@@H]2C[C@H]1C[C@H]2OCc1c(-c2c(Cl)cccc2Cl)noc1C1CC1 ), measured pEC50 is 6.7

For this compound ( O=C(O)c1cc(F)c2nc(N3C[C@H]4C[C@@H]3C[C@@H]4OC(=O)c3c(-c4c(Cl)cccc4Cl)noc3C3CC3)sc2c1 ), measured pEC50 is 6.3

For this compound ( O=C(NS(=O)(=O)C1CC1)c1ccc(N2C(=O)[C@@H]3C[C@H]2C[C@H]3OCc2c(-c3c(Cl)cccc3Cl)noc2C2CC2)cc1F ), measured pEC50 is 8.7
